Biological target: T1, GST-MINT1 PDZ domain 2 fusion protein (human)
T1 chain: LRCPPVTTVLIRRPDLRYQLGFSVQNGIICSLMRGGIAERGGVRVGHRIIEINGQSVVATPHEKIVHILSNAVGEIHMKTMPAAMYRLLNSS
Test: G3 assay titration, immobilised GST-PDZ
No end group written: not given here.

{"binder": "YGRKKRRQRRRSTNSVRLML (not fully specified)", "EC50": "< 2000 nM"}
